Values were extracted from patent US20030055065A1.

- experimental system: farnesyl protein transferase (FPT), partially purified from rat brain (Rattus norvegicus, UniProt Q02293+Q04631)
- Construct: were partially purified from rat brain by ammonium sulfate fractionation followed by Q-Sepharose
- assay comment: Inhibition of farnesyl protein transferase (transfer of [3H]farnesyl to Ras-CVLS)
- Assay type: biochemical
- measurement parameters: Ras-CVLS farnesylation, partially purified rat brain FPT; read-out: FPT IC50
endpoint label: IC50 (µM)

Below: 4 compounds and their reported IC50.
The reported IC50 of the compound CN1C(=O)C(CCC(=O)N2CCC(=C3c4ccc(Cl)cc4CCc4cccnc43)CC2)NC1=S (stereo not shown) was 6

The reported IC50 of the compound O=C(N[C@@H](Cc1ccc(O)cc1)C(=O)N1CCC(=C2c3ccc(Cl)cc3CCc3cccnc32)CC1)OCc1ccccc1 was 1.2

The reported IC50 of the compound O=C(/C=C/c1ccncc1)N1CCC(=C2c3ccc(Cl)cc3CCc3cccnc32)CC1 was 4.4

The reported IC50 of the compound O=C(c1ccc(O)c(O)c1)N1CCC(=C2c3ccc(Cl)cc3CCc3cccnc32)CC1 was 2.3

[A] O=C1CCC(C(=O)N2CCC(=C3c4ccc(Cl)cc4CCc4cccnc43)CC2)=NN1
[B] O=C(c1cc[n+]([O-])cc1)N1CCC(=C2c3ccc(Cl)cc3CCc3cccnc32)CC1
Req: Between the entries labelled A and B , which has a larger IC50 value on record? Respond using the label that marks the chosen record.
Resp: A
